Each entry below carries its recorded activity at 16 µM.
# TARGET OR SYSTEM: DtabPBP1 (Dendrolimus tabulaeformis)
# Sequence (A0A059PCM8 entry or part of it): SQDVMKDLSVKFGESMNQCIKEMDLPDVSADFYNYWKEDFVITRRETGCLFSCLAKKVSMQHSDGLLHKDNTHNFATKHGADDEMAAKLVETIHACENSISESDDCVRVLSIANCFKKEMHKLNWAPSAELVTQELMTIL
# ASSAY OVERVIEW: Competitive fluorescence binding assay (displacement of 1-NPN), DtabPBP1
# CONDITION: DtabPBP1; 1-NPN fluorescence at ligand max conc 16; protein and 1-NPN at 2 μM, pH 7.4; read-out: %of max±SE
# Procedure: Emission fluorescence spectra were performed on an F-4500 fluorescence Spectrophotometer (Hitachi, Japan) at 25 °C with a 1 cm light path quartz cuvette and 5 nm slits for both excitation and emission. […] The fluorescence of the mixture was recorded after 5 min to allow the signal to stabilize. […] To understand the ligand binding properties of the three OBPs, we prepared the recombinant proteins. […] The probe was excited at 337 nm, and emission spectra were recorded between 380 and 450 nm. […]

Worked cases, answers included:
>>> measured("CC1=CCC(=C(C)C)CC1")
"90.3%"
>>> measured("CCCC/C=C/C=C\\CCCCOC(C)=O [Z5,E7-12:OAc, (5Z,7E)-5,7-dodecadien-1-yl acetate]")
"74.7%"
>>> measured("CCCC/C=C/C=C\\CCCCO")
"74.5%"

Please examine the following record next.
[in] What does the data say about its activity at 16 µM? Entry: CCCC/C=C/C=C\CCCCOC(=O)CC [Z5,E7-12:OPr, (5Z,7E)-5,7-dodecadien-1-yl propionate]
[out] 44.5%
